Listing: IC50 of selected compounds
target: GSK3α (GST-full length GSK3α) (Homo sapiens (Human), UniProt P49840); assay: GSK3α TR-FRET kinase assay; assay type: biochemical; conditions: 1 nM GSK3α, 4 μM ATP, 30 minute preincubation, Table 16; read-out: GSK3-A TR-FRET BIOCHEMICAL (TR-FRET); IC50
Sequence (P49840 whole entry): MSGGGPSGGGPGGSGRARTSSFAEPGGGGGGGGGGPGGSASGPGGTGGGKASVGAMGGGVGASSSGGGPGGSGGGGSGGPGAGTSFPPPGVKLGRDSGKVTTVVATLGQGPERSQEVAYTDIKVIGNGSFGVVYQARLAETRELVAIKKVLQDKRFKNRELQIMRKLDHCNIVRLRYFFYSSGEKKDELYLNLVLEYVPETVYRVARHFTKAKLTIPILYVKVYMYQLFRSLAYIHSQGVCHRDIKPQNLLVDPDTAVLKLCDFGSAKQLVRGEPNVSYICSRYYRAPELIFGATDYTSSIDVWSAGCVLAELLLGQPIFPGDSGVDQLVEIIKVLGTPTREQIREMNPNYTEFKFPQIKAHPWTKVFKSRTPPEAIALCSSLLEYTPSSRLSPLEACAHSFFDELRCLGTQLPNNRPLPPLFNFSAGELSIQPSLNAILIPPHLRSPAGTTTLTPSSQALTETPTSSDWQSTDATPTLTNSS
PROPERTY_MEASURED: IC50

- COMPOUND: "CC[C@]1(c2cccc(-c3c(F)cncc3OC)c2)C2=C(CC(C)(C)C2=O)Nc2n[nH]cc21 [Compound 952562]"
  PROPERTY_MEASURED: "IC50"
  DATA_VALUE: "1000 to 5000 nM"
- COMPOUND: "CCC1(c2cccc(Oc3ncccn3)c2)C2=C(CC(C)(C)CC2=O)Nc2n[nH]c(C(F)(F)F)c21 (stereo not shown) [Compound 951604]"
  PROPERTY_MEASURED: "IC50"
  DATA_VALUE: "≤ 100 nM"
- COMPOUND: "CC[C@]1(c2cc(-c3ccnc(C)c3)ccc2F)C2=C(CC(C)(C)CC2=O)Nc2n[nH]cc21 [Compound 909213]"
  PROPERTY_MEASURED: "IC50"
  DATA_VALUE: "> 5000 nM"
- COMPOUND: "CCC1(c2cccc(S(=O)(=O)C3CCOCC3)c2)C2=C(CC(C)(C)CC2=O)Nc2n[nH]cc21 (stereo not shown) [Compound 927344]"
  PROPERTY_MEASURED: "IC50"
  DATA_VALUE: "≤ 100 nM"

====

Listing: pIC50 of selected molecules
target: GSK3b (GST-full length GSK3b) (Homo sapiens (Human)); assay: GSK3b TR-FRET kinase assay; format: biochemical; settings: read-out: GSK3-B (TR-FRET 1 mM ATP); GMean; IC50; 1 mM ATP; geometric mean
Sequence (P49841 whole entry): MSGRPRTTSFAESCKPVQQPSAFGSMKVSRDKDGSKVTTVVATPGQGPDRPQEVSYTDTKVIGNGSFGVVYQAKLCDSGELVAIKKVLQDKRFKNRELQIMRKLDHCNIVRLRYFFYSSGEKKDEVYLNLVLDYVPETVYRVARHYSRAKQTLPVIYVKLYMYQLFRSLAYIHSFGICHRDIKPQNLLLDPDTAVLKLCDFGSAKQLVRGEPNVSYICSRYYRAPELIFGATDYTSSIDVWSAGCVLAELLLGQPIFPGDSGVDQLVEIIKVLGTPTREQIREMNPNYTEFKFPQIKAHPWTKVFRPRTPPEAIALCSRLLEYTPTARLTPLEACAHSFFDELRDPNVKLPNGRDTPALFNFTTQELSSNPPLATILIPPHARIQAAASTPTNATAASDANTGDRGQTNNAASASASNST
pIC50: −log10 of the molar value.
PROPERTY_MEASURED: pIC50

- MOLECULE: "CCC1(c2cccc(N(C)c3nccc(C)n3)c2)C2=C(CC(C)(C)CC2=O)Nc2n[nH]cc21 (centres unmarked) [Compound 942642]"
  DATA_VALUE: "5.30 to 6.00"
- MOLECULE: "CC[C@]1(c2cccc(-c3cn(C)nc3C)c2)C2=C(CC(C)(C)CC2=O)Nc2n[nH]c(C)c21 [Compound 913035]"
  DATA_VALUE: "6.00 to 7.00"
- MOLECULE: "CC[C@]1(c2cccc(-c3ccncc3F)c2)C2=C(CC(C)(C)NC2=O)Nc2n[nH]cc21 [Compound 947869]"
  DATA_VALUE: "5.30 to 6.00"
- MOLECULE: "Cc1ccc(S(C)(=O)=O)cc1C1(C)C2=C(CC(C)(C)CC2=O)Nc2n[nH]c(CC(C)(C)C)c21 (centres unmarked) [Compound 126398]"
  DATA_VALUE: "< 5.30"
- MOLECULE: "CCC1(c2cccc(-c3ccnc(C)c3)c2)C2=C(Nc3n[nH]cc31)C(F)C(C)(C)CC2=O (centres unmarked) [Compound 946103]"
  DATA_VALUE: "< 5.30"
- MOLECULE: "CCC1(c2cccc(S(=O)(=O)C3CC3)c2)C2=C(CC(C)(C)CC2=O)Nc2n[nH]c(C(F)(F)F)c21 (centres unmarked) [Compound 945713]"
  DATA_VALUE: "≥ 7.00"
- MOLECULE: "CC[C@@]1(c2cccc(C(F)F)c2)C2=C(CC(C)(C)CC2=O)Nc2n[nH]cc21 [Compound 826717]"
  DATA_VALUE: "5.30 to 6.00"
- MOLECULE: "CCN(c1cccnc1)c1cccc(C2(CC)C3=C(CC(C)(C)CC3=O)Nc3n[nH]cc32)c1 (centres unmarked) [Compound 917088]"
  DATA_VALUE: "5.30 to 6.00"
- MOLECULE: "CCC1(c2cccc(-c3cnn(C)c3)c2)C2=C(Nc3n[nH]cc31)C(F)C(C)(C)CC2=O (centres unmarked) [Compound 957504]"
  DATA_VALUE: "< 5.30"
- MOLECULE: "CCC1(c2cccc(-c3ccncc3F)c2)C2=C(CC(C)(C)NC2=O)Nc2n[nH]c(Cl)c21 (centres unmarked) [Compound 949324]"
  DATA_VALUE: "5.30 to 6.00"
- MOLECULE: "CC[C@]1(c2cccc(-c3ccnc(C)c3C)c2)C2=C(CC(C)(C)NC2=O)Nc2n[nH]cc21 [Compound 948184]"
  DATA_VALUE: "5.30 to 6.00"
- MOLECULE: "CCC1(c2cccc(-c3cncn3C(C)C)c2)C2=C(CC(C)(C)CC2=O)Nc2n[nH]cc21 (centres unmarked) [Compound 945725]"
  DATA_VALUE: "6.00 to 7.00"
- MOLECULE: "C[S+]([O-])c1cccc(C2(C)C3=C(CC(C)(C)CC3=O)Nc3n[nH]c(CC(C)(C)C)c32)c1 (centres unmarked) [Compound 126191]"
  DATA_VALUE: "6.00 to 7.00"
- MOLECULE: "CCC1(c2cccc(-c3ccnn3C)c2)C2=C(CC(C)(C)CC2=O)Nc2n[nH]cc21 (centres unmarked) [Compound 911992]"
  DATA_VALUE: "6.00 to 7.00"
- MOLECULE: "CC1CCC(CC(=O)N2CC3(C2)CC2(CO3)C3=C(CC(C)(C)CC3=O)Nc3n[nH]cc32)C1 (centres unmarked) [Compound 947269]"
  DATA_VALUE: "6.00 to 7.00"
- MOLECULE: "CC[C@]1(c2cccc(-c3c(C)nn(C)c3C)c2)C2=C(CC(C)(C)NC2=O)Nc2n[nH]cc21 [Compound 947408]"
  DATA_VALUE: "5.30 to 6.00"
- MOLECULE: "CCC1(c2cccc(N3CCCC3)c2)C2=C(CC(C)(C)NC2=O)Nc2n[nH]c(C(F)(F)F)c21 (centres unmarked) [Compound 947860]"
  DATA_VALUE: "6.00 to 7.00"
- MOLECULE: "CCC1(c2cccc(Br)c2)C2=C(CC(C)(C)C(F)C2=O)Nc2n[nH]cc21 (centres unmarked) [Compound 835315]"
  DATA_VALUE: "5.30 to 6.00"
- MOLECULE: "CC1(C)CC(=O)C2=C(C1)Nc1n[nH]cc1C21COC2(CN(C(=O)Cc3ccccc3)C2)C1 (centres unmarked) [Compound 947306]"
  DATA_VALUE: "≥ 7.00"
- MOLECULE: "Cc1cc(C)cc(C(=O)N2CC3(C2)C[C@]2(CO3)C3=C(CC(C)(C)CC3=O)Nc3n[nH]cc32)c1 [Compound 948223]"
  DATA_VALUE: "6.00 to 7.00"
- MOLECULE: "CC[C@@]1(c2cccc(N(C)c3ncccn3)c2)C2=C(CC(C)(C)NC2=O)Nc2n[nH]cc21 [Compound 943964]"
  DATA_VALUE: "5.30 to 6.00"
- MOLECULE: "CCC1(c2cccc(C(F)(F)F)c2)C2=C(CN(Cc3ccccc3)C2=O)Nc2n[nH]cc21 (centres unmarked) [Compound 929388]"
  DATA_VALUE: "< 5.30"
- MOLECULE: "CC[C@]1(c2cccc(C(C)C)c2)C2=C(CC(C)(C)NC2=O)Nc2n[nH]c(C)c21 [Compound 949649]"
  DATA_VALUE: "5.30 to 6.00"
- MOLECULE: "CC1(C)CC(=O)C2=C(C1)Nc1n[nH]cc1[C@]21CCN(S(=O)(=O)CC2CC2)C1 [Compound 943481]"
  DATA_VALUE: "6.00 to 7.00"
- MOLECULE: "CC[C@]1(c2cccc(N3CCCC3)c2)C2=C(CC(C)(C)CC2=O)Nc2n[nH]c(C(F)(F)F)c21 [Compound 819574]"
  DATA_VALUE: "≥ 7.00"
- MOLECULE: "CCC1(c2cccc(-c3cnnc(C)c3)c2)C2=C(CC(C)(C)CC2=O)Nc2n[nH]cc21 (centres unmarked) [Compound 943994]"
  DATA_VALUE: "5.30 to 6.00"
- MOLECULE: "CN(C)S(=O)(=O)c1cccc(C2(C)C3=C(CC(C)(C)CC3=O)Nc3n[nH]c(CC(C)(C)C)c32)c1 (centres unmarked) [Compound 126013]"
  DATA_VALUE: "< 5.30"
- MOLECULE: "CCC1(c2cccc(-c3ccnc(C)c3)c2)C2=C(Nc3n[nH]cc31)C(F)C(C)(C)CC2=O (centres unmarked) [Compound 946104]"
  DATA_VALUE: "< 5.30"
- MOLECULE: "CCC1(c2cccc(-c3cc(C)nn3C)c2)C2=C(CC(C)(C)CC2=O)Nc2n[nH]c(C(F)(F)F)c21 (centres unmarked) [Compound 945532]"
  DATA_VALUE: "6.00 to 7.00"

Numbers sourced from patent US20250313563A1.
